Each recorded value in this set is attributed to PubChem BioAssay AID1159580.

# Protocol text: chemical genetic growth profiling, strain panel (AID 1159580);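 further: tested at 20 µM; growth read once vehicle control cultures reached saturation at 30 °C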
# Test settings: S. cerevisiae deletion strains, growth OD, locus YDL214C, strain PRR2, active compounds read low
In all, about 5,500 compounds went through this assay and about 2,000 (36%) were called active. Roughly 18% stayed inconclusive and do not appear here. This is one part of the list.
Binary call on normalized growth with cut-off 0.9: strictly below means condition met, and equality or higher means condition not met.

Some solved cases for reference:
- O=C(c1ccc(Cl)cc1)N(Cc1ccccc1)Cc1cccnc1: condition met
- O=C(NCC(c1ccccc1)c1c[nH]c2ccccc12)c1ccc(C(F)(F)F)cc1 (stereo not given): condition not met
- OC1CCN(c2cc(C(F)(F)F)nc3cc(Cl)cc(Cl)c23)CC1: condition not met

Request: Given the entry `Cc1ccc(C)c(CSc2nc(C3CCCCC3)c(C#N)c(=O)[nH]2)c1` , would its reported normalized growth be below 0.9?
Response: condition not met

Request: Consider `CCCc1nc(-c2ccccn2)[nH]c(=O)c1CC1CC1` . Does its normalized growth lie strictly below 0.9?
Response: condition not met

Request: Find out if reported normalized growth for `O=C(Nc1ccccc1Sc1ccc([N+](=O)[O-])cc1[N+](=O)[O-])C(Cl)(Cl)Cl` is less than 0.9
Response: condition not met

Request: Lab note: confirm whether the reported normalized growth for this compound is below 0.9, equality not counting. compound: `COC(=O)c1cnn(-c2c(Cl)cccc2Cl)c1C=C(C#N)C#N`
Response: condition not met

Request: Determine whether this compound shows normalized growth lower than 0.9 (ties excluded): `O=C(c1cccs1)N(Cc1cccnc1)Cc1ccc(Cl)cc1Cl`
Response: condition not met

Request: Lab note: confirm whether the reported normalized growth for this compound is below 0.9, equality not counting. compound: `Nc1ccc(Sc2ccccc2)nc1Sc1ccccc1`
Response: condition not met

Request: Identify whether the compound `Cc1nc(-c2ccccn2)nc(N(C)Cc2ccccc2)c1Cl` records normalized growth below 0.9.
Response: condition not met

Request: Criterion: normalized growth strictly below 0.9. Is it met by `O=C(NCCNc1ncc(Cl)cc1C(F)(F)F)C(F)(F)Sc1ccccc1` ?
Response: condition not met
